Cited source for all entries: ChEMBL document CHEMBL5291721

Entries with their measured AC50, system Vasopressin V2 receptor (Homo sapiens):

Use these answered entries as a reference point.
- structure_as_smiles: "Cc1nnc2n1-c1ccc(Cl)cc1C(c1ccccc1Cl)=NC2"
  AC50: "> 30 µM"
- structure_as_smiles: "CC(C)(C)c1cc(C(C)(C)C)c(NC(=O)c2c[nH]c3ccccc3c2=O)cc1O"
  AC50: "> 30 µM"

Request: GET /values?readout=AC50&system=Vasopressin V2 receptor (Homo sapiens)&item= Cc1cn([C@H]2C=C[C@@H](CO)O2)c(=O)[nH]c1=O; note: assay procedure not described here
Response: > 30 µM

###

Entries with their measured AC50, system B2 bradykinin receptor (Homo sapiens, UniProt P30411):

- structure_as_smiles: "Nc1nc(/C(=C/CC(=O)O)C(=O)N[C@@H]2C(=O)N3C(C(=O)O)=CCS[C@H]23)cs1"
  target_under_test: "B2 bradykinin receptor (Homo sapiens, UniProt P30411)"
  AC50: "> 30 µM"

Look at each compound and report its AC50.
1. C[C@H]1COc2c(C3(N)CC3)c(F)cc3c(=O)c(C(=O)O)cn1c23
2. Brc1c(NC2=NCCN2)ccc2nccnc12

Response:
1: > 10 µM; 2: > 30 µM
